Sourced from ChEMBL document CHEMBL1201862

Assignment: determine reported GI50 for the given molecules.
System: MDA-MB-435
experimental details: NCI tumour cell line growth inhibition, 48 h
Active and inactive are the calls of the source. Rule as the data show it: active = GI50 up to about 1.1 µM and inactive = higher.

GI50 measured on `Cc1ccc2c(c1)S(=O)(=O)c1ccc3ccccc3c1N2` = > 100 µM (inactive)

Consider `Cc1ccc(S(=O)(=O)N2CCSCCSCCSCCSCC2)cc1` . Its measured GI50 is 73.8 µM (inactive)

Per the records, this molecule ( `C=CCN(c1cc(OCc2ccccc2)c2c(c(C)cn2S(=O)(=O)c2ccc([N+](=O)[O-])cc2)c1[N+](=O)[O-])S(C)(=O)=O` ) has GI50 equal to 1.47 µM (inactive)

Input `O=c1oc2ccc(Cl)cc2cc1-c1cn2ccccc2n1` . Output GI50: > 100 µM (inactive)

Just so you know, measured GI50 for `CN(/N=C\c1ccc2ccccc2c1)C1=NCCCCN1` came out at 18.2 µM (inactive)

According to the records, this molecule `O=C(c1ccccc1)N1C(=O)N(c2ccccc2)C(=N/c2ccccc2)/C1=N\c1ccccc1` displays GI50 of > 100 µM (inactive)

// field: GI50; key: COC(OC)C1OCC(n2cc(F)c(=O)[nH]c2=O)C1O (centres undefined) ; value = > 100 µM (inactive)

Input `CN(C)CCNC(=O)C(C)(C)Oc1ccc(C(=O)c2ccc(Cl)cc2)cc1Cl` . Output GI50: 5.6 µM (inactive)

So for `COC(=O)c1c(O)ccc2c1c1c(n2CCc2ccc(OC)c(OC)c2)C(=O)c2ccccc2C1=O` , the logged GI50 turned out to be 14 µM (inactive)

----------
Tested on: M19-MEL
experimental details: NCI tumour cell line growth inhibition, 48 h
Activity calls are given as the source filed them. Rule as the data show it: active = GI50 up to about 1.1 µM and inactive = higher.
quantity kind: GI50

Given item `CC(C)(C)[Si](C)(C)O/N=C\c1cccc(O[Si](C)(C)C(C)(C)C)c1` , the value recorded as its GI50 is 17.8 µM (inactive)

Consider Clc1cccc(N2CCN(CCN3CCc4c([nH]c5ccccc45)C3c3cccnc3)CC2)c1 (stereo unspecified) . Its measured GI50 is > 100 µM (inactive)

GI50 recorded for this compound, `O=C1C(=O)N(c2cc(Cl)ccc2Cl)C(=O)C(=O)C1c1nc2ccccc2s1` , is > 100 µM (inactive)

Lab note: measured GI50 of C=C1C(=O)C23CC1CCC2C12CO[C@@H]4OCC(C)(CC[C@@H]1OC3=O)C42 (stereo partly specified) was 6.53 µM (inactive)

Looking up N#C/C(=C1\OC(=N)C(c2ccccc2)C1=O)c1ccccc1 (stereo unspecified) , I see its GI50 listed as 24 µM (inactive)

Query `Cc1ccc(S(=O)(=O)OCC/C(=C\[Si](C)(C)C)c2ccccc2)cc1` yields GI50 of > 100 µM (inactive)

Entry `N#C/C(=C\c1cc(O)c(O)c(O)c1)C(N)=O` — recorded GI50 = 45.3 µM (inactive)

Query COC(=O)CC1NC(=O)[C@@H]1C(C)O (stereo partly specified) yields GI50 of > 100 µM (inactive)

// GI50 value for COc1ccc(C2C(C(=O)O)=C(CO)Oc3cc4c(cc32)OCO4)cc1 (stereo unspecified) : > 100 µM (inactive)

Lab note: measured GI50 of `Nc1nc(=O)[nH][nH]1` was > 100 µM (inactive)

// GI50 value for `COC1=C(OC)CCC(/C(C#N)=C/c2ccc(OC)c(OC)c2)=C1` : > 100 µM (inactive)

Record `O=C/C1=C/C2=Cc3ccccc3C=C(/C=C(/C=O)C1)C2` . Reported GI50: 53.8 µM (inactive)

Please fill in: GI50 reported for `CCCCN/C(=N\C#N)N(Cc1ccccc1)Cc1ccccc1` = 18.1 µM (inactive)

Noted for `COc1ccccc1NC(=O)C1=C(C)NC(C)=C(C(=O)Nc2ccccc2OC)C1C1=CC=COC1` : its GI50 reads 8.97 µM (inactive)

Value of GI50 reported for the compound O=C(Nc1cc(Cl)c(Cl)cc1Cl)C(=O)C(C(=O)c1ccc(Cl)c(Cl)c1)C1OC(=O)c2ccccc21 (stereo unspecified) is 17.6 µM (inactive)

Measured GI50, CCc1c(OC(C)=O)c2c(NC3OCC(OC(C)=O)C(OC(C)=O)C3OC(C)=O)nc(SC)nc2oc1=O (stereo unspecified) : > 100 µM (inactive)

Quick note, GI50 for `S=c1sc2sc(=S)sc2s1` landed at 28.6 µM (inactive)

The compound identified as NNC(=O)C1CCC(=O)N1S(=O)(=O)c1ccccc1 (stereo unspecified) registered its GI50 at > 100 µM (inactive)

Measured GI50 of OCC(O)COc1c(Cl)cc(Cl)cc1Cl (stereo unspecified) : > 100 µM (inactive)

Recorded result, COC1C=COC2(C)Oc3c(C)c(O)c4c(O)c(c(/C=N/N5CCN(N)CC5)c(O)c4c3C2=O)NC(=O)C(C)=CC=CC(C)C(O)C(C)C(O)C(C)C(OC(C)=O)C1C (stereo unspecified) , GI50: 42 µM (inactive)

Documented GI50 of C[n+]1c2ccccc2c(CNC(CCC(N)=O)C(=O)O)c2ccccc21 (stereo unspecified) : 2.18 µM (inactive)

----------
System: DMS-273
experimental details: NCI tumour cell line growth inhibition, 48 h
Activity calls are given as the source filed them. Rule as the data show it: active = GI50 up to about 1.1 µM and inactive = higher.
One label from this list, please: YES = active, NO = inactive

[ask] How did this test come out for COc1ccc(/C=C2\CCC(CCN(C)C)(C3=CCCC3)C2=O)cc1 (stereo not drawn) ?
[reply] NO

[ask] Which outcome was entered for the compound C=C(C#N)C1OCC2OC(C)(C)OC21 (stereo not drawn) in this test?
[reply] NO

[ask] Field: outcome | Entry: OCC(O)COc1c(Cl)cc(Cl)cc1Cl (stereo not drawn)
[reply] NO

[ask] Test call for this compound, please: O=C1OC(c2ccccc2)=N/C1=C/N1CCCC1C(=O)O (stereo not drawn)
[reply] NO

[ask] For COC1CC(O)C(OC(=O)c2ccccc2)C(C)O1 (stereo not drawn) , which call appears in the assay record?
[reply] NO

[ask] Status in this test for CC1=NN(C(=O)CC(=O)Nc2ccccc2F)C(=O)C1/N=N/c1ccccc1[N+](=O)[O-] (stereo not drawn) ?
[reply] NO

[ask] Tell me the recorded outcome of this test for `S=c1sc2sc(=S)sc2s1` .
[reply] NO

[ask] Please let me know the test result on file for `CN(C)CCCOc1ccc(/C=C2/CCC/C(=C/c3ccc(OCCCN(C)C)cc3)C2=O)cc1` .
[reply] NO

[ask] Hi, do you know how CC(SC1=CC(=O)c2c(Cl)ccc(O)c2C1=O)C(=O)O (stereo not drawn) came out in this test?
[reply] NO

[ask] Call for entry O=C1CC(c2n[nH]c3ccccc23)C(=O)N1c1ccccc1 (stereo not drawn) :
[reply] NO

[ask] Tell me the assay call for COC(=O)C(Cc1nc2ccc(Cl)cc2nc1O)C(=O)C(=O)Nc1ccccc1[N+](=O)[O-] (stereo not drawn) please.
[reply] NO

[ask] What was the test verdict on `Cc1ccccc1NC(=O)C(=O)CC(=O)c1sc(-n2nc(-c3ccccc3)cc2-c2ccccc2)nc1C` ?
[reply] NO

[ask] What classification did `COC(=O)c1nn(C(=N)c2ccc(Cl)cc2)c2c1CCC2` end up with in this test?
[reply] NO

[ask] Hey, what did the test say about COc1ncn(C2C=C(CO)C(O)C2O)c(=O)n1 (stereo not drawn) ?
[reply] NO

[ask] Please state the recorded outcome for this compound: C[C@@H]1CC2(N=CCS2)[C@]2(O)O[C@@H]3C[C@@]4(C)[C@H](C[C@H]3O[C@@H]2O1)C[C@H]1O[C@]12[C@@H]4[C@H](O)C(=O)[C@]1(C)C(C3=CC(=O)OC3)CC[C@]21O (stereo partly drawn)
[reply] YES

[ask] What call does the record list for `O=C(N/N=C/c1cccc(F)c1)c1ccncc1` ?
[reply] NO

[ask] Would you mind telling me which call this test gave O=C1NC(=O)C2(CCc3ccc(N(CCCl)CCCl)cc32)N1 (stereo not drawn) ?
[reply] NO

[ask] Give the logged outcome of this assay for the following compound: C=C1C(=O)C23CC1CCC2C12CO[C@@H]4OCC(C)(CC[C@@H]1OC3=O)C42 (stereo partly drawn)
[reply] NO

----------
System: SK-MEL-2
experimental details: NCI tumour cell line growth inhibition, 48 h
Calls of active or inactive are those of the source. Rule as the data show it: active = GI50 up to about 1.1 µM and inactive = higher.
quantity kind: GI50

Reported GI50 ( `COc1ccc(-c2cc(=O)c3cc(C)c(C)c(C(=O)O)c3o2)cc1` ) = > 100 µM (inactive)

get_value(item= CC1=CC2C3(C)C(C)(C(C)=CP3(=O)c3c(C(C)C)cc(C(C)C)cc3C(C)C)C1P2(=O)c1c(C(C)C)cc(C(C)C)cc1C(C)C (stereo not given) , readout=GI50) returns 1.72 µM (inactive)

Data point: `OCCCCCNc1nc(O)c2[nH]cnc2n1` ; GI50 = > 100 µM (inactive)

Record O=C1CC(c2n[nH]c3ccccc23)C(=O)N1c1ccccc1 (stereo not given) , field GI50: > 100 µM (inactive)

The compound identified as NC(=O)CC(N)C(N)=O (stereo not given) registered its GI50 at > 100 µM (inactive)

// `Cc1ccc(S(=O)(=O)N/N=C(/CC(=O)c2c(C)[n+]([O-])c3ccccc3[n+]2[O-])C(=O)Nc2ccc(C)c(C)c2)cc1` : GI50 value = > 100 µM (inactive)

Reported GI50 ( `CCCCN(CCCC)C(=O)/C(CC(=O)c1cccc2ccccc12)=N\NC(=O)c1cc2ccccc2cc1O` ) = 14.1 µM (inactive)

For `CCCCN/C(=N\C#N)N(Cc1ccccc1)Cc1ccccc1` the compound record lists GI50 as 15.2 µM (inactive)

Summary for this compound, `CSc1nc(C)cc(Nc2ccc(O)c(CN3CCOCC3)c2)n1` : GI50 is > 100 µM (inactive)

GI50 recorded for this compound, `N=S(=O)(c1ccccc1)c1ccccc1` , is > 100 µM (inactive)

Short answer for CC1(Cl)C(=O)NC(=O)N(C2CC(N=[N+]=[N-])C(CO)O2)C1N=[N+]=[N-] (stereo not given) : GI50 was > 100 µM (inactive)

Record summary for CCOC(=O)C1([Se]c2ccccc2)CCCC1=O (stereo not given) : reported GI50 = 32.8 µM (inactive)

Reported GI50 ( COc1ccc(/C=C2\CCC(CCN(C)C)(C3=CCCC3)C2=O)cc1 (stereo not given) ) = 17.6 µM (inactive)

// GI50 lookup, compound = `CC(C)(C)C(=O)/C=C/c1cccc(Oc2ccccc2)c1` , result: 13.1 µM (inactive)

Value of GI50 reported for the compound `N#CC(=C1CCN(CCCC(=O)c2ccc(F)cc2)CC1)c1ccccc1` is > 100 µM (inactive)
